# Tested on: Hela, human cervical carcinoma
# EXPERIMENTAL_DETAILS: preliminary anti-tumor screening in vitro, MTT method
# Type: cell-based
# RUN_CONDITIONS: 1 μM, read-out: inhibition rates (%) Hela
# Description: The test methods used in this test example are routine methods for anti-tumor activities test in pharmaceutical area, for example, referring to the following reference: (J. Immunol Method, 1983, 65, 55). […] Inhibition rates of the compounds were measured under concentrations of 0.1 μM, 1 μM or 10 μM.
METRIC_NAME: inhibition at 1 µM (%)
The figure you give is taken to be in %; do not add the unit.

For CC(C)C[C@H](NC(=O)N[C@H](Cc1ccccc1)C(=O)Nc1cnccn1)B(O)O [Example 10] the compound record lists inhibition at 1 µM as 14.8

For COc1ccc(NC(=O)[C@H](Cc2ccccc2)NC(=O)N[C@@H](CC(C)C)B2OC3C[C@H]4C[C@H](C4(C)C)[C@@]3(C)O2)cc1 (stereo partly drawn) [Example 9] the compound record lists inhibition at 1 µM as 14.3

For CC(C)C[C@H](NC(=O)[C@H](Cc1ccccc1)NC(=O)Nc1cnccn1)B(O)O [Example 17] the compound record lists inhibition at 1 µM as 34.6

---

I'd be grateful if you could share measured inhibition at 0.2 µM for these entries.
# SUBJECT_OF_TEST: 20S proteasome extracted from rat liver (PGPH) (Rattus norvegicus, UniProt P28073+Q9JHW0)
# Construct: 20S proteasome extracted from rat liver; from tissue; host or cells: rat liver
# EXPERIMENTAL_DETAILS: inhibition of 20S proteasome, PGPH activity (fluorescent peptide)
# Assay type: biochemical
# RUN_CONDITIONS: 0.2 μM; rat liver 20S proteasome, 37° C., 1 h; read-out: inhibition rates (%) PGPH
# Method: 1 μg of 20S proteasome extracted from rat liver was incubated with a 100 μL solution containing various concentrations of the present compounds, 50 μM fluorescent peptides and 20 mM Tris-HCl at 37° C. for 1 h, respectively. […] 0.1% DMSO was used as a solvent control. Compared with the fluorescence of solvent control, an inhibition rate or IC50 value was calculated.
The figure you give is taken to be in %; do not add the unit.

For COc1ccc(CNC(=O)[C@H](Cc2ccccc2)NC(=O)N[C@@H](CC(C)C)B(O)O)cc1 [Example 1] the compound record lists inhibition at 0.2 µM as 40.9

For CC(C)C[C@H](NC(=O)[C@H](Cc1ccccc1)NC(=O)NCc1ccccc1)B(O)O [Example 14] the compound record lists inhibition at 0.2 µM as 6.46

For CC(C)C[C@H](NC(=O)CNC(=O)Nc1cc(Cl)ccc1Cl)B(O)O [Example 22] the compound record lists inhibition at 0.2 µM as 10.1

For CC(C)C[C@H](NC(=O)N[C@H](Cc1ccccc1)C(=O)Nc1cnccn1)B(O)O [Example 10] the compound record lists inhibition at 0.2 µM as 19

For CC(C)C[C@H](NC(=O)[C@H](Cc1ccccc1)NC(=O)[C@H](Cc1ccccc1)NC(=O)Nc1cccc(OCc2ccccc2)c1)B(O)O [Example 23] the compound record lists inhibition at 0.2 µM as -13.7

For CC(C)C[C@H](NC(=O)N[C@@H](Cc1ccccc1)C(=O)Nc1cccc(OCc2ccccc2)c1)B1OC2C[C@H]3C[C@H](C3(C)C)[C@@]2(C)O1 (stereo partly drawn) [Example 5] the compound record lists inhibition at 0.2 µM as 2.67

For CC(C)C[C@H](NC(=O)[C@H](Cc1ccccc1)NC(=O)Nc1cnccn1)B(O)O [Example 17] the compound record lists inhibition at 0.2 µM as 3.75

For COc1ccc(OC)c(CNC(=O)N[C@@H](Cc2ccccc2)C(=O)N[C@@H](CC(C)C)B(O)O)c1 [Example 18] the compound record lists inhibition at 0.2 µM as 9.81

For CC(C)C[C@H](NC(=O)N[C@@H](Cc1ccccc1)C(=O)Nc1cnccn1)B(O)O [Example 6] the compound record lists inhibition at 0.2 µM as 17.4

---

# Tested on: A549, human lung cancer
# EXPERIMENTAL_DETAILS: preliminary anti-tumor screening in vitro, SRB method
# Format: cell-based
# RUN_CONDITIONS: 10 μM, read-out: inhibition rates (%) A549
I'd be grateful if you could share measured inhibition at 10 µM for these entries.
Field note: include the unit after the figure.

For CC(C)C[C@H](NC(=O)N[C@@H](CC(C)C)C(=O)N[C@@H](CC(C)C)C(=O)Nc1cnccn1)B(O)O [Example 11] the molecule record lists inhibition at 10 µM as 26.6%

For CC(C)C[C@H](NC(=O)N[C@@H](Cc1ccccc1)C(=O)N[C@@H](CC(C)C)C(=O)Nc1cnccn1)B(O)O [Example 12] the molecule record lists inhibition at 10 µM as 69.7%

For CC(C)C[C@H](NC(=O)[C@H](Cc1ccccc1)NC(=O)NCc1cccc(Cl)c1Cl)B(O)O [Example 20] the molecule record lists inhibition at 10 µM as 69.3%

---

# SUBJECT_OF_TEST: 20S proteasome extracted from rat liver (PGPH) (Rattus norvegicus, UniProt P28073+Q9JHW0)
# Construct: 20S proteasome extracted from rat liver; from tissue; host or cells: rat liver
# EXPERIMENTAL_DETAILS: inhibition of 20S proteasome, PGPH activity (fluorescent peptide)
# Assay type: biochemical
# RUN_CONDITIONS: 2 μM; rat liver 20S proteasome, 37° C., 1 h; read-out: inhibition rates (%) PGPH
METRIC_NAME: inhibition at 2 µM (%)
The figure you give is taken to be in %; do not add the unit.

For `CC(C)C[C@H](NC(=O)N[C@H](Cc1ccccc1)C(=O)Nc1cnccn1)B(O)O` the compound record lists inhibition at 2 µM as 79.8

For `CC(C)C[C@H](NC(=O)N[C@@H](Cc1ccccc1)C(=O)Nc1cnccn1)B(O)O` the compound record lists inhibition at 2 µM as 66.3

For `COc1ccc(NC(=O)[C@H](Cc2ccccc2)NC(=O)N[C@@H](CC(C)C)B(O)O)cc1` the compound record lists inhibition at 2 µM as 7.36

For CC(C)C[C@H](NC(=O)N[C@@H](Cc1ccccc1)C(=O)Nc1cnccn1)B1OC2C[C@H]3C[C@H](C3(C)C)[C@@]2(C)O1 (stereo partly shown) the compound record lists inhibition at 2 µM as 1.95

---

# SUBJECT_OF_TEST: 20S proteasome extracted from rat liver (PGPH) (Rattus norvegicus, UniProt P28073+Q9JHW0)
# Construct: 20S proteasome extracted from rat liver; from tissue; host or cells: rat liver
# EXPERIMENTAL_DETAILS: inhibition of 20S proteasome, PGPH activity (fluorescent peptide)
# Assay type: biochemical
# RUN_CONDITIONS: 0.2 μM; rat liver 20S proteasome, 37° C., 1 h; read-out: inhibition rates (%) PGPH
I'd be grateful if you could share measured inhibition at 0.2 µM for these entries.
The figure you give is taken to be in %; do not add the unit.

For `CC(C)C[C@H](NC(=O)[C@H](Cc1ccccc1)NC(=O)N[C@@H](Cc1ccccc1)C(=O)Nc1cnccn1)B(O)O` the compound record lists inhibition at 0.2 µM as -21.8

For `CC(C)C[C@H](NC(=O)N[C@@H](Cc1ccccc1)C(=O)Nc1cccc(OCc2ccccc2)c1)B(O)O` the compound record lists inhibition at 0.2 µM as 2.03

For CC(C)C[C@H](NC(=O)N[C@@H](Cc1ccccc1)C(=O)NCC1CCCO1)B(O)O (some centres unmarked) the compound record lists inhibition at 0.2 µM as 7.38

For `CC(C)C[C@H](NC(=O)N[C@@H](Cc1ccccc1)C(=O)N[C@@H](CC(C)C)C(=O)Nc1cnccn1)B(O)O` the compound record lists inhibition at 0.2 µM as 9.76

For `COc1ccc(CNC(=O)N[C@@H](Cc2ccccc2)C(=O)N[C@@H](CC(C)C)B(O)O)cc1` the compound record lists inhibition at 0.2 µM as 8.45

For CC(C)C[C@H](NC(=O)N[C@@H](Cc1ccccc1)C(=O)Nc1cnccn1)B1OC2C[C@H]3C[C@H](C3(C)C)[C@@]2(C)O1 (some centres unmarked) the compound record lists inhibition at 0.2 µM as 5.76

For `CC(C)C[C@H](NC(=O)N[C@@H](Cc1ccccc1)C(=O)N[C@@H](CC(C)C)C(=O)Nc1cnccn1)B1OC(C)(C)C(C)(C)O1` the compound record lists inhibition at 0.2 µM as 5.28

For `CC(C)C[C@H](NC(=O)N[C@@H](CC(C)C)C(=O)N[C@@H](CC(C)C)C(=O)Nc1cnccn1)B(O)O` the compound record lists inhibition at 0.2 µM as 12.8

For `CC(C)C[C@H](NC(=O)[C@H](Cc1ccccc1)NC(=O)Nc1cccc(OCc2ccccc2)c1)B(O)O` the compound record lists inhibition at 0.2 µM as -14.4

For `COc1ccc(NC(=O)[C@H](Cc2ccccc2)NC(=O)N[C@@H](CC(C)C)B(O)O)cc1` the compound record lists inhibition at 0.2 µM as 1.62

For COc1ccc(OC)c(CNC(=O)N[C@@H](Cc2ccccc2)C(=O)N[C@@H](CC(C)C)B2OC3CC4CC(C4(C)C)[C@]3(C)O2)c1 (some centres unmarked) the compound record lists inhibition at 0.2 µM as 16.9

For `CC(C)C[C@H](NC(=O)CNC(=O)Nc1cccc(OCc2ccccc2)c1)B(O)O` the compound record lists inhibition at 0.2 µM as 8.58

For `CC(C)C[C@H](NC(=O)[C@H](Cc1ccccc1)NC(=O)NCc1cccc(Cl)c1Cl)B(O)O` the compound record lists inhibition at 0.2 µM as -23

For COc1ccc(NC(=O)[C@H](Cc2ccccc2)NC(=O)N[C@@H](CC(C)C)B2OC3C[C@H]4C[C@H](C4(C)C)[C@@]3(C)O2)cc1 (some centres unmarked) the compound record lists inhibition at 0.2 µM as 1.67
